- testedTarget: T1, human GIP receptor (human) (UniProt P48546)
- T1 sequence (looked up): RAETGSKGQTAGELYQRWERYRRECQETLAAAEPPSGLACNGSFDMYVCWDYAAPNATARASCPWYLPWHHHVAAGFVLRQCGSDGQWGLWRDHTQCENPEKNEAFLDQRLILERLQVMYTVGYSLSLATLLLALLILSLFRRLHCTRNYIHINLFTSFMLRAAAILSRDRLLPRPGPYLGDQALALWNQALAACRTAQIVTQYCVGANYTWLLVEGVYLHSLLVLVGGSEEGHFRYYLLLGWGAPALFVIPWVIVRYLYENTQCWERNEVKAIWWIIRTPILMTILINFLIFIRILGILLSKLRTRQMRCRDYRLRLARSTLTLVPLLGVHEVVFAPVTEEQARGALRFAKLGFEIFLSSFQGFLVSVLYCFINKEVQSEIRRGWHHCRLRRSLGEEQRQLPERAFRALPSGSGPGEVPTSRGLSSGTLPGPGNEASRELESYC
- testProtocol: cell-based or functional assay
Where no end group is shown, it is not given here. Side-chain parts run from the residue outwards. [ ]: non-standard residue; d: D form. The star is where a group is joined. Decanoyl(10-(4-HOOC-PhO)) = O=C(O)c1ccc(OCCCCCCCCCC(=O)*)cc1; αMePhe(2-F) = C[C@](N)(Cc1ccccc1F)C(=O)O; αMeY = C[C@](N)(Cc1ccc(O)cc1)C(=O)O; αMeL = CC(C)C[C@](C)(N)C(=O)O; Orn = NCCC[C@H](N)C(=O)O; AEEA = NCCOCCOCC(=O)O; Aib = CC(C)(N)C(=O)O
quantity: cAMP EC50 (nM)
Answer with a number only, understood to be in nM.

Example entries and their recorded answers appear below.
For the binder Y[Aib]EGT[αMePhe(2-F)]TSDV[Aib]I[αMeL]LD[Orn]K([AEEA-AEEA-Decanoyl(10-(4-HOOC-PhO))])AQ[Aib]EFI[dE][αMeY]LIK([AEEA-AEEA-Decanoyl(10-(4-HOOC-PhO))])GGPSSGAPPPS-NH2 [Example 397] , what cAMP EC50 is on record? 0.0293

For the binder YXEGTXTSDXXIXLDXKAQXKXIXXLIEGGPSSGAPPPS (Y-Aib-EGT-αMeF(2F)-TSD-4Pal-Aib-I-αMeL-LD-Orn-K((2-[2-(2-Amino-ethoxy)-ethoxy]-acetyl)3-(γ-Glu)-CO-(CH2)10-CH3)AQ-Aib-K((2-[2-(2-Amino-ethoxy)-ethoxy]-acetyl)3-(γ-Glu)-CO-(CH2)10-CH3)-αMeF-I-(D-Glu)-αMeY-LIEGGPSSGAPPPS-NH2) [Example 437] , what cAMP EC50 is on record? 0.0146

For the binder YXEGTXTSDXXIXLDXKAQXKFIXXLIXGGPSSGAPPPS (Y-Aib-EGT-αMeF(2F)-TSD-4Pal-Aib-I-αMeL-LD-Orn-K((2-[2-(2-Amino-ethoxy)-ethoxy]-acetyl)3-(γ-Glu)-CO-(CH2)10-CH3)AQ-Aib-K((2-[2-(2-Amino-ethoxy)-ethoxy]-acetyl)3-(γ-Glu)-CO-(CH2)10-CH3)FI-(D-Glu)-αMeY-LI-Orn-GGPSSGAPPPS-NH2) [Example 433] , what cAMP EC50 is on record? 0.00972

---
For the binder YXEGTXTSDXXIXLDXIAQXKFIXXLIEGGPSSGAPPPSK (Y-Aib-EGT-αMeF(2F)-TSD-4Pal-Aib-I-αMeL-LD-Orn-IAQ-Aib-K((2-[2-(2-Amino-ethoxy)-ethoxy]-acetyl)-(γ-Glu)-CO-(CH2)12-CO2H)FI-(D-Glu)-αMeY-LIEGGPSSGAPPPSK((2-[2-(2-Amino-ethoxy)-ethoxy]-acetyl)-(γ-Glu)-CO-(CH2)12-CO2H)-NH2) [Example 341] , what cAMP EC50 is on record? 0.0127

For the binder YXEGTXTSDXSIXLDXKAQXXFIXXLIKGGPSSGAPPPS (Y-Aib-EGT-αMeF(2F)-TSD-4Pal-SI-αMeL-LD-Orn-K((2-[2-(2-Amino-ethoxy)-ethoxy]-acetyl)2-(γ-Glu)-CO-(CH2)10-CH3)AQ-Aib-Orn-FI-(D-Glu)-αMeY-LIK((2-[2-(2-Amino-ethoxy)-ethoxy]-acetyl)2-(γ-Glu)-CO-(CH2)10-CH3)GGPSSGAPPPS-NH2) [Example 299] , what cAMP EC50 is on record? 0.0104

For the binder YXEGTXTSDYXIXLDXIAQXKFIXXLIKGGPSSGAPPPS (Y-Aib-EGT-αMeF(2F)-TSDY-Aib-I-αMeL-LD-Orn-IAQ-Aib-K((2-[2-(2-Amino-ethoxy)-ethoxy]-acetyl)-(γ-Glu)-(10-(4-carboxyphenoxy)decanoyl))FI-(D-Glu)-αMeY-LIK((2-[2-(2-Amino-ethoxy)-ethoxy]-acetyl)-(γ-Glu)-(10-(4-carboxyphenoxy)decanoyl))GGPSSGAPPPS-NH2) [Example 376] , what cAMP EC50 is on record? 0.0281

For the binder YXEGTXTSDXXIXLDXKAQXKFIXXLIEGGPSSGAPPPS (Y-Aib-EGT-αMeF(2F)-TSD-4Pal-Aib-I-αMeL-LD-Orn-K((2-[2-(2-Amino-ethoxy)-ethoxy]-acetyl)2-(γ-Glu)-CO-(CH2)12-CO2H)AQ-Aib-K((2-[2-(2-Amino-ethoxy)-ethoxy]-acetyl)2-(γ-Glu)-CO-(CH2)12-CO2H)FI-(D-Glu)-αMeY-LIEGGPSSGAPPPS-NH2) [Example 357] , what cAMP EC50 is on record? 0.011

For the binder YXEGTXTSDKXIXLDXKAQXXFIXXLIEGGPSSGAPPPS (Y-Aib-EGT-αMeF(2F)-TSDK((2-[2-(2-Amino-ethoxy)-ethoxy]-acetyl)3-(γ-Glu)-CO-(CH2)10-CH3)-Aib-I-αMeL-LD-Orn-K((2-[2-(2-Amino-ethoxy)-ethoxy]-acetyl)3-(γ-Glu)-CO-(CH2)10-CH3)AQ-Aib-Orn-FI-(D-Glu)-αMeY-LIEGGPSSGAPPPS-NH2) [Example 432] , what cAMP EC50 is on record? 0.00602

For the binder YXEGTXTSDYXIXLDXKAQXXFIXXLIKGGPSSGAPPPS (Y-Aib-EGT-αMeF(2F)-TSDY-Aib-I-αMeL-LD-Orn-K((2-[2-(2-Amino-ethoxy)-ethoxy]-acetyl)2-(γ-Glu)-(10-(4-carboxyphenoxy)decanoyl))AQ-Aib-Om-FI-(D-Glu)-αMeY-LIK((2-[2-(2-Amino-ethoxy)-ethoxy]-acetyl)2-(γ-Glu)-(10-(4-carboxyphenoxy)decanoyl))GGPSSGAPPPS-NH2) [Example 352] , what cAMP EC50 is on record? 0.0106
